test system: SR leukemia; experiment: NCI-60 one-dose screen, 48 h (100 = growth as untreated, 0 = no growth, -100 = all killed); settings: 10 µM
This is part of a sample that, as a whole, favours compounds with a hit. Of some 83,000 tested, about 20% had one in any assay. Active and inactive are the calls of the source. How the source made its calls: active means growth percent below 10; inactive means the rest.
The entries below come with measured growth values attached.

[
  {
    "compound": "O=C1C=C(Nc2ccc([N+](=O)[O-])cc2)c2ccccc2C1=O",
    "tested-system": "SR leukemia",
    "growth": "23.9% (inactive)"
  },
  {
    "compound": "C/C(=C\\c1cc(Cl)ccc1OCC(=O)O)[N+](=O)[O-]",
    "tested-system": "SR leukemia",
    "growth": "113% (inactive)"
  },
  {
    "compound": "COC(=O)c1ccc(C(C)C)cc1",
    "tested-system": "SR leukemia",
    "growth": "103% (inactive)"
  },
  {
    "compound": "Clc1ccc(-c2n[nH]c3c2Cc2ccccc2-3)cc1Cl",
    "tested-system": "SR leukemia",
    "growth": "112% (inactive)"
  },
  {
    "compound": "Oc1ccc2c(c1)OCC1(O)Cc3cc(O)c(O)cc3C21 (stereo not given)",
    "tested-system": "SR leukemia",
    "growth": "78.4% (inactive)"
  },
  {
    "compound": "O=C(Nc1cc(-c2ccccc2)[nH]n1)c1ccc(Cl)cc1",
    "tested-system": "SR leukemia",
    "growth": "47.7% (inactive)"
  },
  {
    "compound": "O=C(Cc1ccccc1)Cc1ccccc1",
    "tested-system": "SR leukemia",
    "growth": "104% (inactive)"
  },
  {
    "compound": "O=[N+]([O-])c1ccc(S(=O)(=O)NN=C2CCCCC2)cc1",
    "tested-system": "SR leukemia",
    "growth": "96.9% (inactive)"
  },
  {
    "compound": "O=C1Cc2cc(O)ccc2O1",
    "tested-system": "SR leukemia",
    "growth": "91.8% (inactive)"
  },
  {
    "compound": "S=c1[nH]ccn1-c1ccccc1Cl",
    "tested-system": "SR leukemia",
    "growth": "101% (inactive)"
  }
]
